TESTED ON: hGLP-1R (Homo sapiens, UniProt P43220)
Sequence (P43220 24-463): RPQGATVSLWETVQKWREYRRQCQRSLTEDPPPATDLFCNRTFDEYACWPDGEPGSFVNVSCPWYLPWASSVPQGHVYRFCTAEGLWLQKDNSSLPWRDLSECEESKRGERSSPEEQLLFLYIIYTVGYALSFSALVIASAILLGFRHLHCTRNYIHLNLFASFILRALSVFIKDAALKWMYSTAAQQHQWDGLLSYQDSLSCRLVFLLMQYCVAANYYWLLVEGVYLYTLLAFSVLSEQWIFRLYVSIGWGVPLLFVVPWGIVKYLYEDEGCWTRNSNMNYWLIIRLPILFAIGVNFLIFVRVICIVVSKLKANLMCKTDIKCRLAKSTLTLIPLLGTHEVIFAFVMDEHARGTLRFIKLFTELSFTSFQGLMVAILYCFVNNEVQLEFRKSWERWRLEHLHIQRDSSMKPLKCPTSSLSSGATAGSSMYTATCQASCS
PROTOCOL TEXT: cell-based or functional assay
Starred links: 1 amine or outer side, 2 acyl side, 3 side chain; linkers in the order of their positions; H or OH if unused. Non-standard residues stand in square brackets, D forms with d. Groups on a side chain read outwards from the residue. No end group written: not given here. *: point of attachment. C20 diacid = O=C(O)CCCCCCCCCCCCCCCCCCC(=O)*; αMePhe(2-F) = C[C@](N)(Cc1ccccc1F)C(=O)O; γGlu = O=C(O)[C@H](CCC(=O)[*:2])N[*:1]; AEEA = NCCOCCOCC(=O)O; Aib = CC(C)(N)C(=O)O
PROPERTY NAME: Relative cAMP EC50 (nM)
Respond with the bare value in nM.

Reference set, count: 10
BINDER	Relative cAMP EC50 / nM
YXQGTXTSDYXIXLDXKAQXXFIEXLEEGGPSSGEPPPEEG (synthetic construct; SITE 2: note = 2-Aminoisobutyric Acid; SITE 6: note = alpha-methyl-2-fluoro-L-phenylalanine; SITE 11: note = alpha-methyl-L-serine; SITE 13: note = alpha-methyl-leucine; SITE 16: note = L-ornithine; SITE 17: note = Lysine is chemically modified through conjugation of the epsilon) [Example 403]	0.396
YXQGTFTSDFSXXLDKKAQXAFIEWLLEGGXSSGAPPPSGE (synthetic construct; SITE 2: note = 2-Aminoisobutyric Acid; SITE 12: note = L-ornithine; SITE 13: note = alpha-methyl-leucine; SITE 17: note = Lysine is chemically modified through conjugation of the epsilon-amino group of the Lysine side chain with (2-[2-(2-Amino-ethoxy)-ethoxy]-acetyl)-(gamma-Glu)) [Example 104]	3.39
YXQGTFTSDFSQXLDKKAQXAFIEYLLEXGESSGEPPPSGS (synthetic construct; SITE 2: note = 2-Aminoisobutyric Acid; SITE 13: note = alpha-methyl-leucine; SITE 17: note = Lysine is chemically modified through conjugation of the epsilon-amino group of the Lysine side chain with (2-[2-(2-Amino-ethoxy)-ethoxy]-acetyl)-(gamma-Glu)-CO-(CH2) 16-CO2H; SITE 20: n) [Example 788]	2.5
YXQGTXTSDXSIXLDXKAQXEFIEXLLEGGPSSGAPPPSGS (Lys acylated AEEA-γGlu-C18 diacid; non-natural residues; C-terminal amide; synthetic construct; SITE 2: note = 2-Aminoisobutyric Acid; SITE 6: note = alpha-methyl-2-fluoro-L-phenylalanine; SITE 10: note = 3-(4-Pyridyl)-L-alanine; SITE 13: note = alpha-methyl-leucine; SITE 16: note = L-ornithine; SITE 17: note = Lysine is chemically modified through conjugation of the epsil) [Example 641]	0.489
YXQGTXTSDXXIXLDXKAAXEFIEXLIEGGPSSGEPPPSGS (synthetic construct; SITE 2: note = 2-Aminoisobutyric Acid; SITE 6: note = alpha-methyl-2-fluoro-L-phenylalanine; SITE 10: note = 3-(4-Pyridyl)-L-alanine; SITE 11: note = alpha-methyl-L-serine; SITE 13: note = alpha-methyl-leucine; SITE 16: note = L-ornithine; SITE 17: note = Lysine is chemically mo) [Example 707]	0.248
YXQGTFTSDFSXXLDKKAQXAFIEYLLEAGPSSGHPPPSGX (synthetic construct; SITE 2: note = 2-Aminoisobutyric Acid; SITE 12: note = L-ornithine; SITE 13: note = alpha-methyl-leucine; SITE 17: note = Lysine is chemically modified through conjugation of the epsilon-amino group of the Lysine side chain with (2-[2-(2-Amino-ethoxy)-ethoxy]-acetyl)2-(gamma-Glu)) [Example 256]	2.87
YXQGTFTSDFSQXLDKKAQXAFIEWLLEGGPSSGAPPPEGS (synthetic construct; SITE 2: note = 2-Aminoisobutyric Acid; SITE 13: note = alpha-methyl-leucine; SITE 17: note = Lysine is chemically modified through conjugation of the epsilon-amino group of the Lysine side chain with (2-[2-(2-Amino-ethoxy)-ethoxy]-acetyl)-(gamma-Glu)-CO-(CH2) 16-CO2H; SITE 20: n) [Example 774]	1.89
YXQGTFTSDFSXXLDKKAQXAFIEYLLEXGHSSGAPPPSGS (Aib, Orn, αMeL; lipidated Lys; C-terminal amide; synthetic construct; SITE 2: note = 2-Aminoisobutyric Acid; SITE 12: note = L-ornithine; SITE 13: note = alpha-methyl-leucine; SITE 17: note = Lysine is chemically modified through conjugation of the epsilon-amino group of the Lysine side chain with (2-[2-(2-Amino-ethoxy)-ethoxy]-acetyl)-(gamma-Glu)) [Example 243]	6.46
YXQGTFTSDFSKXLDKKAQXAFIEYLLAGGPSSGAPPPSGS (non-natural residues, acyl lysine, C-terminal amide; synthetic construct; SITE 2: note = 2-Aminoisobutyric Acid; SITE 13: note = alpha-methyl-leucine; SITE 17: note = Lysine is chemically modified through conjugation of the epsilon-amino group of the Lysine side chain with (2-[2-(2-Amino-ethoxy)-ethoxy]-acetyl)-(gamma-Glu)-CO-(CH2) 18-CO2H; SITE 20: n) [Example 14]	1.67
YXQGTFTSDXSKXLDKKAQXAFIEYLIEXGESSGAPPPSGS (synthetic construct; SITE 2: note = 2-Aminoisobutyric Acid; SITE 10: note = 3-(4-Pyridyl)-L-alanine; SITE 13: note = alpha-methyl-leucine; SITE 17: note = Lysine is chemically modified through conjugation of the epsilon-amino group of the Lysine side chain with (2-[2-(2-Amino-ethoxy)-ethoxy]-acetyl)) [Example 280]	0.95

// Relative cAMP EC50 lookup, binder = YXQGTXTSDXXIXLDXXAQXEFIEXLIEGGPSSGAPPPSGS (synthetic construct; SITE 2: note = 2-Aminoisobutyric Acid; SITE 6: note = alpha-methyl-2-fluoro-L-phenylalanine; SITE 10: note = 3-(4-Pyridyl)-L-alanine; SITE 11: note = alpha-methyl-L-serine; SITE 13: note = alpha-methyl-leucine; SITE 16: note = L-ornithine; SITE 17: note = Ornithine is chemically) [Example 1211] , result: 0.276

// Relative cAMP EC50 lookup, binder = YXQGTXTSDXXIXLDXKAQXEFIEXLIEGGPSSGAPPPGGE (non-natural residues; K acylated AEEA-γGlu-C18 diacid; C-amide; synthetic construct; SITE 2: note = 2-Aminoisobutyric Acid; SITE 6: note = alpha-methyl-2-fluoro-L-phenylalanine; SITE 10: note = 3-(4-Pyridyl)-L-alanine; SITE 11: note = alpha-methyl-L-serine; SITE 13: note = alpha-methyl-leucine; SITE 16: note = L-ornithine; SITE 17: note = Lysine is chemically mo) [Example 1144] , result: 0.282

// Relative cAMP EC50 lookup, binder = YXQGTFTSDFSXXLDKKAQXAFIEYLLEAGPSSGHPPPSGH (synthetic construct; SITE 2: note = 2-Aminoisobutyric Acid; SITE 12: note = L-ornithine; SITE 13: note = alpha-methyl-leucine; SITE 17: note = Lysine is chemically modified through conjugation of the epsilon-amino group of the Lysine side chain with (2-[2-(2-Amino-ethoxy)-ethoxy]-acetyl)2-(gamma-Glu)) [Example 255] , result: 1.9

// Relative cAMP EC50 lookup, binder = YXQGTFTSDXSKXLDKKAQXAFIEYLIEXGPSSGAPPPSGSEE (synthetic construct; SITE 2: note = 2-Aminoisobutyric Acid; SITE 10: note = 3-(4-Pyridyl)-L-alanine; SITE 13: note = alpha-methyl-leucine; SITE 17: note = Lysine is chemically modified through conjugation of the epsilon-amino group of the Lysine side chain with (2-[2-(2-Amino-ethoxy)-ethoxy]-acetyl)) [Example 902] , result: 2.58

// Relative cAMP EC50 lookup, binder = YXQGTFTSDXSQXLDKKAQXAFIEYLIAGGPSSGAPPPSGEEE (non-natural residues; acylated Lys; C-terminal amide; synthetic construct; SITE 2: note = 2-Aminoisobutyric Acid; SITE 10: note = 3-(4-Pyridyl)-L-alanine; SITE 13: note = alpha-methyl-leucine; SITE 17: note = Lysine is chemically modified through conjugation of the epsilon-amino group of the Lysine side chain with (Glu)-(gamma-Glu)-CO-(CH2)16-CO2H; SIT) [Example 1089] , result: 2.96

// Relative cAMP EC50 lookup, binder = YXQGTXTSDXXIXLDXKAQXEFIEXLIEGGPSSGEPPPTGE (Non-natural residues; K acylated AEEA-γGlu-C18 diacid; C-terminal amide; synthetic construct; SITE 2: note = 2-Aminoisobutyric Acid; SITE 6: note = alpha-methyl-2-fluoro-L-phenylalanine; SITE 10: note = 3-(4-Pyridyl)-L-alanine; SITE 11: note = alpha-methyl-L-serine; SITE 13: note = alpha-methyl-leucine; SITE 16: note = L-ornithine; SITE 17: note = Lysine is chemically mo) [Example 1143] , result: 0.381

// Relative cAMP EC50 lookup, binder = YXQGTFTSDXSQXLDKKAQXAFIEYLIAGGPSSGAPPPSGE (Aib, 4Pal, αMeL, Me4Pal; acylated K; C-terminal amide; synthetic construct; SITE 2: note = 2-Aminoisobutyric Acid; SITE 10: note = 3-(4-Pyridyl)-L-alanine; SITE 13: note = alpha-methyl-leucine; SITE 17: note = Lysine is chemically modified through conjugation of the epsilon-amino group of the Lysine side chain with (Glu)-(gamma-Glu)-CO-(CH2)16-CO2H; SIT) [Example 1086] , result: 1.23

// Relative cAMP EC50 lookup, binder = YXQGTXTSDYXSXLDXKAQXXFIEXLLEGGPSSGEPPPE (synthetic construct; SITE 2: note = 2-Aminoisobutyric Acid; SITE 6: note = alpha-methyl-L-phenylalanine; SITE 11: note = alpha-methyl-L-serine; SITE 13: note = alpha-methyl-leucine; SITE 16: note = L-ornithine; SITE 17: note = Lysine is chemically modified through conjugation of the epsilon-amino gr) [Example 389] , result: 0.134

// Relative cAMP EC50 lookup, binder = Y[Aib]QGT[αMePhe(2-F)]TSDYSILLDKIAAK([AEEA-γGlu-C20 diacid])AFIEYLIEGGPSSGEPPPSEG-NH2 [Example 296] , result: 0.536

// Relative cAMP EC50 lookup, binder = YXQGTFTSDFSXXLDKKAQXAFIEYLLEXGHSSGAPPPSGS (non-natural residues; C18 diacid-γGlu-AEEA on Lys; C-terminal amide; synthetic construct; SITE 2: note = 2-Aminoisobutyric Acid; SITE 12: note = L-ornithine; SITE 13: note = alpha-methyl-leucine; SITE 17: note = Lysine is chemically modified through conjugation of the epsilon-amino group of the Lysine side chain with (2-[2-(2-Amino-ethoxy)-ethoxy]-acetyl)-(gamma-Glu)) [Example 241] , result: 2.3

// Relative cAMP EC50 lookup, binder = YXQGTXTSDXSILLDKKAQXAFIEYLEEGGPSSGAPPPEGTGE (synthetic construct; SITE 2: note = 2-Aminoisobutyric Acid; SITE 6: note = alpha-methyl-2-fluoro-L-phenylalanine; SITE 10: note = 3-(4-Pyridyl)-L-alanine; SITE 17: note = Lysine is chemically modified through conjugation of the epsilon-amino group of the Lysine side chain with (gamma-Glu)2-CO-(CH2)1) [Example 660 (SEQ ID NO: 666)] , result: 1.27

// Relative cAMP EC50 lookup, binder = YXQGTFTSDXSQXLDKKAQXAFIEYLIAGGPSSGAPPPSGSEE (synthetic construct; SITE 2: note = 2-Aminoisobutyric Acid; SITE 10: note = 3-(4-Pyridyl)-L-alanine; SITE 13: note = alpha-methyl-leucine; SITE 17: note = Lysine is chemically modified through conjugation of the epsilon-amino group of the Lysine side chain with (Glu)-(gamma-Glu)-CO-(CH2)16-CO2H; SIT) [Example 1030] , result: 1.72

// Relative cAMP EC50 lookup, binder = YXQGTFTSDXXQXLDXKAQXQFIEXLIEXGPSSGAPPPSGGGE (not fully specified; acylated lysine γGlu-C18 diacid; non-natural residues; C-terminal amide; synthetic construct; SITE 2: note = 2-Aminoisobutyric Acid; SITE 10: note = 3-(4-Pyridyl)-L-alanine; SITE 11: note = alpha-methyl-L-serine; SITE 13: note = alpha-methyl-leucine; SITE 16: note = L-ornithine; SITE 17: note = Lysine is chemically modified through conjugation of the epsilon-amino group) [Example 1187] , result: 1.06

// Relative cAMP EC50 lookup, binder = YXQGTXTSDXSIXLDXKAQXEFIEXLLEGGPSSGAPPPSGE (Aib, αMeF(2F), 4Pal, Orn, (AEEA)2-γGlu-C18 diacid, amide; synthetic construct; SITE 2: note = 2-Aminoisobutyric Acid; SITE 6: note = alpha-methyl-2-fluoro-L-phenylalanine; SITE 10: note = 3-(4-Pyridyl)-L-alanine; SITE 13: note = alpha-methyl-leucine; SITE 16: note = L-ornithine; SITE 17: note = Lysine is chemically modified through conjugation of the epsil) [Example 613] , result: 0.698
